# assay_notes: in vivo
# Format: in vivo, guinea pig
# cond: guinea pig, in vivo, ip, 1300 mg/kg/day

>  <compound>
O=C1O[C@H]([C@@H](O)CO)C(O)=C1O [Na-ascorbate]

>  <concentration at 336 h (ng/mL)>
20600

$$$$
